test: qHTS for Inhibitors of the Functional Ribonucleoprotein Complex (vRNP) of Lassa (LASV) Arenavirus: LASV Primary Screen - GLuc reporter signal (AID 1347082); conditions: LASV minigenome vRNP, Gaussia luciferase reporter; series mostly up to 57.5 µM; note: nearly all actives have a fitted effect of over 60% in size
Results filed as inconclusive are left out. Active and inactive are the calls of the source. Calls come from the whole dose curve; tested in HEK293 reporter line.
Possible outcomes: label 1 (active), label 0 (inactive)

{"compound": "COC(=O)[C@H]1[C@@H](OC(=O)c2ccccc2)C[C@@H]2CC[C@H]1N2C", "classification": "label 0"}
{"compound": "OCCC(O)CO (stereo unspecified)", "classification": "label 0"}
{"compound": "COC(=O)CCC(=O)OC", "classification": "label 0"}
{"compound": "COC(/C(C)=C/C=C/C(C)=C/c1coc(C)n1)C(C)C1CC(O)C2(C)OC2C=CC(C)C2CC(CC(=O)O2)CC2OC2C(=O)O1 (stereo unspecified)", "classification": "label 0"}
{"compound": "N=c1c[n+](N2CCOCC2)[n-]o1", "classification": "label 0"}
{"compound": "O=C1C=CC(O)(c2cc(=O)c3c(O)cc(O)cc3o2)C=C1", "classification": "label 1"}

----------
experiment: Primary qHTS to identify inhibitors of SARS-CoV-2 cell entry (AID 1645846); conditions: SARS-CoV-2 pseudovirus cell entry assay, luminescence; series mostly up to 57.1 µM; note: nearly all actives have a fitted effect of over 45% in size
Records with an inconclusive call do not appear. The source made the active and inactive calls. Calls come from the whole dose curve.
Possible outcomes: YES for active, NO for inactive

{"compound": "CC(C)(C)c1nc(-c2cccc(NS(=O)(=O)c3c(F)cccc3F)c2F)c(-c2ccnc(N)n2)s1", "classification": "YES"}
{"compound": "Oc1ccc(-c2ccc(-c3cc(Nc4cccc(CNC5CC5)c4)n[nH]3)cc2)c(O)c1", "classification": "YES"}
{"compound": "N=c1ccn2c(n1)O[C@H]1[C@@H](O)[C@@H](CO)O[C@H]12", "classification": "YES"}
{"compound": "C[C@@H]1C(=O)O[C@H]2CC34[C@H]5C[C@@H](C(C)(C)C)C36[C@H](OC(=O)[C@@H]6O)O[C@@]4(C(=O)O5)[C@]21O (some centres undefined)", "classification": "NO"}
{"compound": "COc1ccc(-c2ccc3ncc4c(c3c2)n(-c2ccc(N3CCNCC3)c(C(F)(F)F)c2)c(=O)n4C)cn1", "classification": "YES"}
{"compound": "COC1CCC(C(=O)c2ccc3nc4c(cc3c2)CCCO4)CC1 (centres undefined)", "classification": "NO"}
{"compound": "O=C(c1cncc(Br)c1)N1CCC(N2CCCC2)CC1", "classification": "NO"}
{"compound": "COc1cccc([C@@H](C)NCCCc2ccccc2Cl)c1", "classification": "YES"}
{"compound": "CNC(=O)c1c(F)cccc1Nc1nc(Nc2cc3c(cc2OC)CCN3C(=O)CN(C)C)nc2[nH]ccc12", "classification": "YES"}

----------
experiment: qHTS for Inhibitors of the Functional Ribonucleoprotein Complex (vRNP) of Lassa (LASV) Arenavirus: LASV Primary Screen - GLuc reporter signal (AID 1347082); details: LASV minigenome vRNP, Gaussia luciferase reporter; series mostly up to 57.5 µM; note: nearly all actives have a fitted effect of over 60% in size; note: potency is the fitted concentration of half-maximal effect
Records with an inconclusive call do not appear. Active and inactive are the calls of the source. Calls come from the whole dose curve; tested in HEK293 reporter line.

{"compound": "Cn1c2ccccc2c(=O)c2c(O)cccc21", "Potency": "inactive"}
{"compound": "CCCCCCCCCCCCCCCCC", "Potency": "inactive"}
{"compound": "O=c1c(O)c(-c2ccccc2O)oc2cc(O)cc(O)c12", "Potency": "inactive"}
{"compound": "COc1ccc(-c2cc3ncc(C)n3c(Nc3ncccc3C(N)=O)n2)cc1OC", "Potency": "inactive"}
{"compound": "Cc1cccc(/C=C/c2ccccc2)n1", "Potency": "inactive"}
{"compound": "C[C@H]1OC(=O)CC[C@@H]2[C@]1(C)CCC1[C@@]2(C)CC[C@@]2(C)C3CC(C)(C)CC[C@]3(CO)CC[C@]12C (stereo not given in full)", "Potency": "inactive"}
{"compound": "CC1CCC(C(C)(C)S)C(=O)C1 (stereo not given)", "Potency": "inactive"}
{"compound": "NC(N)=Nc1nc(CSCCC(N)=NS(N)(=O)=O)cs1", "Potency": "inactive"}
{"compound": "COc1cc(OC)cc(-c2ccc3ncc4ccc(=O)n(-c5ccc(N6CCNCC6)c(C(F)(F)F)c5)c4c3c2)c1", "Potency": "10.9 µM (active)"}
{"compound": "CCCCC(C)(C)[C@H](O)C=C[C@H]1[C@H](O)CC(=O)[C@H]1CC=CCCCC(=O)O", "Potency": "inactive"}
{"compound": "CCn1c(-c2nonc2N)nc2cncc(CNC3CCNCC3)c21", "Potency": "24.3 µM (active)"}
{"compound": "CC[C@@]1(O)C[C@H](O[C@H]2C[C@H](N(C)C)[C@H](O[C@H]3C[C@H](O)[C@H](O[C@H]4CCC(=O)[C@H](C)O4)[C@H](C)O3)[C@H](C)O2)c2c(cc3c(c2O)C(=O)c2c(O)cccc2C3=O)[C@@H]1C(=O)OC", "Potency": "inactive"}
{"compound": "CC1(C)C2CC1[C@@](C)(O)[C@H](O)C2 (stereo not given in full)", "Potency": "inactive"}
{"compound": "CCOC(=O)c1c(C)cc(O)cc1O", "Potency": "inactive"}
{"compound": "O=C(O)c1ccco1", "Potency": "inactive"}
{"compound": "CCCN(CC1CC1)c1nc(C)nc(Nc2c(Cl)cc(Cl)cc2Cl)c1Cl", "Potency": "inactive"}
{"compound": "COc1ccc(C(C)=O)c(O)c1", "Potency": "inactive"}
{"compound": "O=C(O)CCCc1c[nH]c2ccccc12", "Potency": "inactive"}
{"compound": "C=CCCCCCCCCCCCC", "Potency": "inactive"}
{"compound": "CC(C)Cc1ccc([C@H](C)C(=O)O)cc1", "Potency": "inactive"}
{"compound": "Cc1ccc2c(c1)C(N1CCN(C)CC1)=Nc1cccnc1N2", "Potency": "inactive"}
{"compound": "COc1cc2c(cc1OC)C1Cc3ccc(OC)c(OC)c3C[N+]1([O-])CC2 (stereo not given)", "Potency": "inactive"}
{"compound": "CC(=O)O[C@H]1CC2(C)[C@@H](C[C@@H](O)[C@H]3[C@@]4(C)CC[C@@H](O)[C@@H](C)[C@@H]4CC[C@@]32C)C1=C(CCC=C(C)C)C(=O)O (stereo not given in full)", "Potency": "inactive"}
{"compound": "CC=C(C)C(=O)OC1CCN2CC=C(COC(=O)C(O)(C(C)OC)C(C)(C)O)C12 (stereo not given)", "Potency": "inactive"}
{"compound": "C=C[C@](C)(O)CC[C@@H]1[C@@]2(C)CCCC(C)(C)[C@@H]2CC[C@@]1(C)O", "Potency": "inactive"}
{"compound": "COc1cc2c(cc1O)[C@@H]1Cc3cc(O)c(OC)cc3[C@H](C2)N1C", "Potency": "inactive"}
{"compound": "O=C(CCCCCCC(=O)Nc1ccc([C@H]2O[C@@H](CSc3nc(-c4ccccc4)c(-c4ccccc4)o3)C[C@@H](c3ccc(CO)cc3)O2)cc1)NO", "Potency": "inactive"}
{"compound": "C=C(C)[C@H]1CC=C(CO)CC1", "Potency": "inactive"}
{"compound": "CC(=O)O[C@@]12CO[C@@H]1C[C@@H](O)[C@@]1(C)C(=O)[C@H](O)C3=C(C)[C@@H](OC(=O)[C@H](O)[C@@H](NC(=O)c4ccccc4)c4ccccc4)C[C@@](O)([C@@H](OC(=O)c4ccccc4)C12)C3(C)C (stereo not given in full)", "Potency": "inactive"}
{"compound": "CC(C)(C)[N+]([O-])=Cc1ccc(S(=O)(=O)O)cc1S(=O)(=O)O", "Potency": "inactive"}
{"compound": "CC1=C2C(=O)C3C(CC=C4CC(O)CCC43C)C2CCC12OC1CC(C)CNC1C2C (stereo not given)", "Potency": "inactive"}
{"compound": "OC1c2ccccc2N=C2CCCN21 (stereo not given)", "Potency": "inactive"}
{"compound": "C[C@@H]1O[C@@H](O[C@H]2[C@H](O)[C@@H](O)[C@H](Oc3c(-c4ccc(O)cc4)oc4cc(O)cc(O)c4c3=O)O[C@@H]2CO)[C@H](O)[C@H](O)[C@H]1O", "Potency": "inactive"}
{"compound": "CCCCCCCOC(C)=O", "Potency": "inactive"}
{"compound": "COc1cc(/C=C/c2ccccc2)cc(OC)c1", "Potency": "inactive"}
{"compound": "C[C@H](Cc1ccc(O)c(O)c1)[C@@H](C)Cc1ccc(O)c(O)c1", "Potency": "inactive"}
{"compound": "CCCn1c(=O)c2c(ncn2C)n(CCC)c1=O", "Potency": "inactive"}
{"compound": "Nc1cc(Cl)c(NC2=NCCN2)c(Cl)c1", "Potency": "inactive"}
{"compound": "COc1cc2c(Nc3ccc(Cl)c(Cl)c3F)ncnc2cc1OCC1C[C@@H]2CN(C)C[C@H]2C1", "Potency": "8.63 µM (active)"}
{"compound": "C/C(=C/CCC(C)[C@H]1CC[C@@]2(C)C3=C(CC[C@]12C)[C@@]1(C)CCC(=O)C(C)(C)[C@@H]1CC3)C(=O)O (stereo not given in full)", "Potency": "inactive"}

Reference source: PubChem BioAssay (NCATS)
